measurement_protocol: chemical genetic growth profiling, strain panel (AID 1159580);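 also: tested at 20 µM; growth read once vehicle control cultures reached saturation at 30 °C; 1 = growth at the plate median or of vehicle wells; lower values mean less growth of the strain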
condition_context: S. cerevisiae deletion strains, growth OD, locus YLR370C, strain arc18, hits give low values
Hit rate of the full screen: of about 5,500 compounds, about 2,000 (36%) were called active. Not shown: some 18% with an inconclusive outcome. Some of the results follow.
This listing pairs compounds with measured normalized growth.

{"columns": ["compound", "normalized growth"],
 "data": [
  ["CCCCCCCCCCCCCc1ccco1", 0.989],
  ["CCCCCCCCCCC[C@@H](C[C@H]1OC(=O)[C@H]1CCCCCC)OC(=O)[C@@H](CC(C)C)NC=O", 1.03],
  ["COC(=O)C[C@H]1C2(C)CC34OC5(C)O[C@@]6([C@H](OC(C)=O)C(OC(C)=O)[C@]7(C)C(/C(=C(/O)C(C)C)C(=O)O[C@H]7c7ccoc7)[C@@]6(O5)[C@H](OC(C)=O)[C@@]3(O)C2OC(=O)C(C)C)[C@]14C (stereo partly specified)", 0.99],
  ["c1ccc2c(c1)CCCC2C1=NCCN1 (stereo unspecified)", 1.02],
  ["C=CCc1ccc(OC)cc1", 0.995],
  ["C=C[C@@](C)(O)CCC1C(=C)C[C@H](O)C2C(C)(C)CCCC12C (stereo partly specified)", 0.976],
  ["C=CC[C@]1(O)CCC2C3CCC4=CC(=O)CCC4=C3C=C[C@@]21C (stereo partly specified)", 0.982],
  ["Nc1ncn[nH]1", 1.01],
  ["CC(C)NCC(O)COc1cccc2[nH]ccc12 (stereo unspecified)", 0.974],
  ["C=CCCCCCCCCCCCc1ccco1", 0.966],
  ["COc1ccc(OC)c(C(O)CNC(=O)CN)c1 (stereo unspecified)", 1],
  ["C=C[C@@](C)(O)CCC1C(=C)C[C@H](OC(C)=O)C2C(C)(C)CCCC12C (stereo partly specified)", 1.02],
  ["C[C@@H]1CC(Cl)CC[C@H]1C(=O)OC(C)(C)C (stereo partly specified)", 0.991],
  ["Oc1cc(O)c2c(c1)O[C@H](c1cc(O)c(O)c(O)c1)[C@H](O)C2", 1.01],
  ["C=C1CCC2[C@](C)(CO)[C@H](O)CC[C@@]2(C)[C@@H]1C/C=C1/C(=O)OC[C@H]1O (stereo partly specified)", 0.972],
  ["NCCc1cnc[nH]1", 1.01],
  ["CCCCC/C=C/CCC(=O)N[C@H]1[C@H](Oc2c3cc4cc2Oc2ccc(cc2Cl)[C@@H](O[C@@H]2O[C@H](CO)[C@@H](O)[C@H](O)[C@H]2NC(C)=O)[C@@H]2NC(=O)[C@H](NC(=O)[C@@H]4NC(=O)[C@H]4NC(=O)C(Cc5ccc(c(Cl)c5)O3)NC(=O)[C@H](N)c3ccc(O)c(c3)Oc3cc(O)cc4c3)c3ccc(O)c(c3)-c3c(OC4O[C@H](CO)[C@@H](O)[C@H](O)[C@@H]4O)cc(O)cc3[C@@H](C(=O)O)NC2=O)O[C@H](CO)[C@@H](O)[C@@H]1O (stereo partly specified)", 1],
  ["CN1C2CCC1CC(OC(c1ccccc1)c1ccccc1)C2 (stereo unspecified)", 0.987],
  ["CNC(=O)O/N=C(\\C)SC", 1],
  ["CC#CC1(O)CCC2C3CCC4=CC(=O)CCC4=C3C(c3ccc(N(C)C)cc3)CC21C (stereo unspecified)", 0.993],
  ["c1ccc2c(c1)sc1ccccc12", 0.929],
  ["C#CCCCCCCCCCCCc1ccco1", 0.998],
  ["CN1C2C[C@H](OC(=O)[C@H](CO)c3ccccc3)C[C@H]1[C@@H](O)C2", 1.01],
  ["Oc1cc(O)c2c(c1)O[C@H](c1ccc(O)c(O)c1)[C@H](O)C2", 1.01],
  ["COc1ccc([C@H]2Oc3c(I)c(OC)cc(OC)c3C[C@@H]2O)cc1OC", 1.01],
  ["CC1(O)CC2C(CC1O)C2(C)C (stereo unspecified)", 1.01]
]}
